Every entry's value here was drawn from patent US9937152B2.

test: in vivo; conditions: Balb, mouse, iv
observed property: MTD (mg/kg)
Numbers only; they are read as mg/kg.

INPUT: Look at this compound and give its reported MTD. COc1cccc2c1C(=O)c1c(O)c3c(c(O)c1C2=O)C[C@@](O)(C(=O)CO)C[C@@H]3O[C@H]1C[C@H](N)[C@H](O[C@@H]2CCCCO2)[C@H](C)O1 [THP, pirarubicin]
OUTPUT: 3
